- ASSAYED SYSTEM: PI 3-kinase (p110α/p85α)
- Construct: other: GST-fused p110α/p85α
- METHOD NOTES: PI 3-kinase inhibition assay
- RUN CONDITIONS: GST-fused p110α/p85α
pIC50: −log10 of the molar value.
PROPERTY: pIC50

- COMPOUND: "O=c1cc(N2CCOCC2)oc2c1ccc1ccccc12 [Compound 293, 2-(morpholin-4-yl)-benzo[h]chromen-4-one]"
  RELATIONAL OPERATOR: "="
  READOUT VALUE: 4.70
- COMPOUND: "O=c1cc(N2CCOCC2)oc2cc(OCc3ccc(F)cc3)ccc12 [Compound 414]"
  RELATIONAL OPERATOR: "="
  READOUT VALUE: 4.02
- COMPOUND: "CC(C)(C)c1ccc(-c2cc(=O)cc(N3CCOCC3)o2)cc1 [Compound 289]"
  RELATIONAL OPERATOR: "="
  READOUT VALUE: 4.43
- COMPOUND: "COc1ccc(-c2cc(=O)cc(N3CCOCC3)o2)cc1 [Compound 288]"
  RELATIONAL OPERATOR: "="
  READOUT VALUE: 4.82
- COMPOUND: "O=c1cc(N2CCOCC2)oc2ccc3ccccc3c12 [Compound 310, 2-morpholin-4-yl-benzo[f]chromen-4-one]"
  RELATIONAL OPERATOR: "="
  READOUT VALUE: 4.96
- COMPOUND: "O=c1cc(-c2ccccc2)oc(N2CCOCC2)c1 [Compound 285, 2-(morpholin-4-yl)-6-phenyl-pyran-4-one]"
  RELATIONAL OPERATOR: "="
  READOUT VALUE: 4.52
- COMPOUND: "O=c1cc(N2CCOCC2)oc2cc(OCc3ccc(Cl)cc3)ccc12 [Compound 415]"
  RELATIONAL OPERATOR: "<"
  READOUT VALUE: 4.00
- COMPOUND: "O=C1c2ccccc2C(=O)N1CCCOc1ccc2c(=O)cc(N3CCOCC3)oc2c1 [Compound 422]"
  RELATIONAL OPERATOR: "="
  READOUT VALUE: 5.22

* * *

- Tested on: ATM protein
- METHOD NOTES: ATM inhibition assay (immunoprecipitated ATM, GSTp53N66 substrate)
- Format: biochemical, human
- RUN CONDITIONS: selectivity ratio from the IC50s for ATM and DNA-PK

- MOLECULE: "O=c1cc(N2CCOCC2)oc2cc(O)ccc12"
  Δ(DNA-PK/ATM): ">111"
- MOLECULE: "CC(C)(C)c1ccc(-c2cc(=O)cc(N3CCOCC3)o2)cc1"
  Δ(DNA-PK/ATM): ">111"
- MOLECULE: "O=c1cc(N2CCOCC2)oc2c(-c3ccccc3)cccc12"
  Δ(DNA-PK/ATM): "> 67"
- MOLECULE: "O=c1cc(N2CCSCC2)oc2c1ccc1ccccc12"
  Δ(DNA-PK/ATM): ">83"
- MOLECULE: "O=c1cc(N2CCOCC2)oc2c1ccc1ccccc12 [Compound 293, 2-(morpholin-4-yl)-benzo[h]chromen-4-one]"
  Δ(DNA-PK/ATM): ">250"

* * *

- Tested on: PI 3-kinase (p110α/p85α)
- METHOD NOTES: PI 3-kinase inhibition assay
- Assay type: biochemical
- RUN CONDITIONS: selectivity ratio from the IC50s for PI 3-kinase and DNA-PK
PROPERTY: Δ(DNA-PK/PI 3-K)

- MOLECULE: "O=c1cc(-c2ccccc2)oc(N2CCOCC2)c1 [Compound 285, 2-(morpholin-4-yl)-6-phenyl-pyran-4-one]"
  RELATIONAL OPERATOR: "="
  READOUT VALUE: 38
- MOLECULE: "CC1CN(c2cc(=O)c3ccc4ccccc4c3o2)CCO1 (centres unmarked) [Compound 317]"
  RELATIONAL OPERATOR: "="
  READOUT VALUE: 8
- MOLECULE: "O=c1cc(N2CCOCC2)oc2c(-c3ccccc3)cccc12 [Compound 294]"
  RELATIONAL OPERATOR: "="
  READOUT VALUE: 1
- MOLECULE: "O=c1cc(N2CCOCC2)nc2c3ccccc3ccn12 [Compound 5]"
  RELATIONAL OPERATOR: ">"
  READOUT VALUE: 143
- MOLECULE: "O=C1c2ccccc2C(=O)N1CCCOc1ccc2c(=O)cc(N3CCOCC3)oc2c1 [Compound 422]"
  RELATIONAL OPERATOR: "="
  READOUT VALUE: 12
- MOLECULE: "O=c1cc(N2CCOCC2)oc2c1ccc1ccccc12 [Compound 293, 2-(morpholin-4-yl)-benzo[h]chromen-4-one]"
  RELATIONAL OPERATOR: "="
  READOUT VALUE: 50
- MOLECULE: "O=c1cc(N2CCOCC2)oc2cc3ccccc3cc12 [Compound 301, 2-(morpholin-4-yl)-benzo[g]chromen-4-one]"
  RELATIONAL OPERATOR: "="
  READOUT VALUE: 40
- MOLECULE: "CC(C)(C)c1ccc(-c2cc(=O)cc(N3CCOCC3)o2)cc1 [Compound 289]"
  RELATIONAL OPERATOR: "="
  READOUT VALUE: 82

* * *

# IC50 annotations
- ASSAYED SYSTEM: ATM protein (Homo sapiens, UniProt Q13315)
- Construct: ATM protein was immunoprecipitated from HeLa cell nuclear extract; endogenous in cells
- Sequence (Q13315 whole entry): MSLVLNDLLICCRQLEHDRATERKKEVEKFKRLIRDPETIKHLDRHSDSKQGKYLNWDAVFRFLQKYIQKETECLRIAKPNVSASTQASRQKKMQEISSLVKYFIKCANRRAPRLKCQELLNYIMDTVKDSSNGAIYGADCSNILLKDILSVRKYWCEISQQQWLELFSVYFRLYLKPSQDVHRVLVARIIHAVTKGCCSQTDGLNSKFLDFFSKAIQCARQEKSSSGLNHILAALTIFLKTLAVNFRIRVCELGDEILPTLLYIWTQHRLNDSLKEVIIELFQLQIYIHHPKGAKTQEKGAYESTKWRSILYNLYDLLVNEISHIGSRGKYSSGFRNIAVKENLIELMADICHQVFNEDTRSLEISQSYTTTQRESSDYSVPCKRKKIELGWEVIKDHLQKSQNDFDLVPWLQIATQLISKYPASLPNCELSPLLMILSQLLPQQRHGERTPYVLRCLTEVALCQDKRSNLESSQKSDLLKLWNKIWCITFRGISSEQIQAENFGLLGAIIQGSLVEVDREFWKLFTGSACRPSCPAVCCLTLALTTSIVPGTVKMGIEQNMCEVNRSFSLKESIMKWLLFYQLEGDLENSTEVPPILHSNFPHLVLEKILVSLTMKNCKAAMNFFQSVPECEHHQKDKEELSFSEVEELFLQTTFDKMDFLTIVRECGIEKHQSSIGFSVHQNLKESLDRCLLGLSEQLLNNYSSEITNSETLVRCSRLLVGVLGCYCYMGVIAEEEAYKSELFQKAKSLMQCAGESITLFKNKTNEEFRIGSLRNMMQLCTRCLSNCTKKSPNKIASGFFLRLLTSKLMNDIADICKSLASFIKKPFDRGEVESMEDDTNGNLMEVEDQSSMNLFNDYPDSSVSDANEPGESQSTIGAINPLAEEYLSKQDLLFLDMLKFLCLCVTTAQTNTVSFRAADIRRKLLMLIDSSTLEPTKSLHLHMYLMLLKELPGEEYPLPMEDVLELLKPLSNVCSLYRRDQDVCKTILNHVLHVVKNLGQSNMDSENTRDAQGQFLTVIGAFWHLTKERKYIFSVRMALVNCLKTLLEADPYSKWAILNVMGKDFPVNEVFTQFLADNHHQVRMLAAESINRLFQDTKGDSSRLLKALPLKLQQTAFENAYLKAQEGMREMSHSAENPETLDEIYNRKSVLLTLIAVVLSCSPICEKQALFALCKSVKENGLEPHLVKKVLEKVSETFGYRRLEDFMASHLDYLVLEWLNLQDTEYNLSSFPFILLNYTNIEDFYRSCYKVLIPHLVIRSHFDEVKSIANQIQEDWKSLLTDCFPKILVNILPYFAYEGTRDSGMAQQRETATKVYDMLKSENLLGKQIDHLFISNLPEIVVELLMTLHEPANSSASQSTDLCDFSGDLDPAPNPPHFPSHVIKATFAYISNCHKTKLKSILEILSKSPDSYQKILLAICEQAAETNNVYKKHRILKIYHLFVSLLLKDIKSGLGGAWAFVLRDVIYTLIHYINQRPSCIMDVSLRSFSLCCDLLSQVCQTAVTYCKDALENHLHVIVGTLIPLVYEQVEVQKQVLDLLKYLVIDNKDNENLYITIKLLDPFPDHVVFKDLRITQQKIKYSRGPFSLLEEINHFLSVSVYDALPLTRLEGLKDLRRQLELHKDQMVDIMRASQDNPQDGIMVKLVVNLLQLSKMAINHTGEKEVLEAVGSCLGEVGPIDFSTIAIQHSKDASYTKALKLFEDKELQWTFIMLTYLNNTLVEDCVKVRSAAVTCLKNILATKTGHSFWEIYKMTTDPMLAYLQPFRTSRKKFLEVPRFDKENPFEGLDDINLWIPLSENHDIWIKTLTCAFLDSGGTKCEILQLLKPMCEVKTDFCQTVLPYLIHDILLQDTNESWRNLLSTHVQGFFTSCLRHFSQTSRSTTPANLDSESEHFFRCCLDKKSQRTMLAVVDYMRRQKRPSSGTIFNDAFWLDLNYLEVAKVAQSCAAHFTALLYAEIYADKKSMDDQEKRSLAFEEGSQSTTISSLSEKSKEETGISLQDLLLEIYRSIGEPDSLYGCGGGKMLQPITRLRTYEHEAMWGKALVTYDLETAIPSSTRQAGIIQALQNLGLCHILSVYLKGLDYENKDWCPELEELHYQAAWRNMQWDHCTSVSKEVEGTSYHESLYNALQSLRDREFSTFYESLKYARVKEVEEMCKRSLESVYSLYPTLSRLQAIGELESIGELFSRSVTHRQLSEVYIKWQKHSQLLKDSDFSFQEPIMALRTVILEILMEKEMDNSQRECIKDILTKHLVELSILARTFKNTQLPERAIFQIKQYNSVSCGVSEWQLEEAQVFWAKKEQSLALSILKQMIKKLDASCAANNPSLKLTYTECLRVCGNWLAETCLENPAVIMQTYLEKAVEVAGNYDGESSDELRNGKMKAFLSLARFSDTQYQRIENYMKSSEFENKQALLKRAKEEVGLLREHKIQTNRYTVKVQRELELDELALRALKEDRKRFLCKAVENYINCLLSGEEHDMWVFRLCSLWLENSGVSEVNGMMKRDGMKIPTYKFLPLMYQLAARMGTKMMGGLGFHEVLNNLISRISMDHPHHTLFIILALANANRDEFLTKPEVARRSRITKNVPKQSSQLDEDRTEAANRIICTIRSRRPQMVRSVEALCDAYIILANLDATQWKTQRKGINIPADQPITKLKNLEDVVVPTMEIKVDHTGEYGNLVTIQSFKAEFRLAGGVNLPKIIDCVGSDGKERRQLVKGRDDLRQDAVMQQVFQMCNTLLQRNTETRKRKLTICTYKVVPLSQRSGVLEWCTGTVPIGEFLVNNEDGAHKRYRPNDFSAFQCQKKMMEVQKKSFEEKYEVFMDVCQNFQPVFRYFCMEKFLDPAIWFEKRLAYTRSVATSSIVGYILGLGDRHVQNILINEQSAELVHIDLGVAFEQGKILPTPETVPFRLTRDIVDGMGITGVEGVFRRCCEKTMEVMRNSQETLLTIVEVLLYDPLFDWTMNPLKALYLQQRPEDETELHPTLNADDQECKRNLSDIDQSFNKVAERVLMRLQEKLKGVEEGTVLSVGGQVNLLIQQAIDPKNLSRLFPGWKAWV
- METHOD NOTES: ATM inhibition assay (immunoprecipitated ATM, GSTp53N66 substrate)
- Description: In order to assess the inhibitory action of the compounds against ATM in vitro, the following assay was used to determine IC50 values. ATM protein was immunoprecipitated from HeLa cell nuclear extract using rabbit polyclonal antisera raised to the C-terminal ˜500 amino-acid residues of the human ATM protein. […] Counts per second, following a one second counting time, were recorded for each reaction. The inhibition of ATM activity by compounds was calculated as described above for the DNA-PK assay. […]

- MOLECULE: "O=c1cc(N2CCOCC2)oc2c1ccc1ccccc12 [Compound 293, 2-(morpholin-4-yl)-benzo[h]chromen-4-one]"
  ASSAYED SYSTEM: "ATM protein (Homo sapiens, UniProt Q13315)"
  IC50: "> 100 µM"
- MOLECULE: "COc1ccccc1-c1cc(=O)cc(N2CCOCC2)o1"
  ASSAYED SYSTEM: "ATM protein (Homo sapiens, UniProt Q13315)"
  IC50: "24 µM"
- MOLECULE: "O=c1cc(N2CCOCC2)oc2c(-c3ccccc3)cccc12"
  ASSAYED SYSTEM: "ATM protein (Homo sapiens, UniProt Q13315)"
  IC50: "> 100 µM"
- MOLECULE: "O=c1cc(-c2ccc(Cl)cc2)oc(N2CCOCC2)c1"
  ASSAYED SYSTEM: "ATM protein (Homo sapiens, UniProt Q13315)"
  IC50: "> 100 µM"
